Assay: Toxicity liver stage against HepG2, at 10uM
Assay type: cell-based
Set-up: test concentration 10 uM, cell line HepG2-A16-CD81EGFP
Conditions: human, HepG2-A16-CD81EGFP cells; read-out: INHIBITION
quantity measured: cytotoxicity at 10 µM (%)

> print(dat)
                                    molecule      quantity.measured  numeric.result
 1  Cc1nn(C)c(Cl)c1C1CCCN1Cc1noc(C2CC2)n1 (stereo unspecified)  cytotoxicity at 10 µM           -1.64
 2            O=C(CCNc1ncccn1)NCCc1ccc(Cl)s1  cytotoxicity at 10 µM           -3.91
 3  C[S+]([O-])CCNCc1ccc(OCc2cscn2)cc1 (stereo unspecified)  cytotoxicity at 10 µM            -138
 4         CCn1cnnc1CNC(=O)N1CCCN(C(C)=O)CC1  cytotoxicity at 10 µM            1.18
 5    COCCN(CCOC)C(=O)c1cnn(C)c1-n1c(C)ccc1C  cytotoxicity at 10 µM            -144
 6       COc1ccc(CNCCc2cc(F)cc3c2OCOC3)cc1OC  cytotoxicity at 10 µM            -6.9
 7  COc1ccc(CNC(=O)N2CCCC(Nc3ccccc3)C2)cn1 (stereo unspecified)  cytotoxicity at 10 µM           -4.57
 8  Cc1noc(CN2CC=C(c3cnn(C4CCS(=O)(=O)C4)c3)CC2)n1 (stereo unspecified)  cytotoxicity at 10 µM           -0.89
 9  CN1CCN(C(=O)[C@H]2CC[C@@H]3[C@@H](CCN3Cc3ccsc3)O2)CC1  cytotoxicity at 10 µM            1.07
10  COCCO[C@H]1CCN(C(=O)c2ccoc2C)[C@H]1Cc1cnn(C)c1  cytotoxicity at 10 µM           -6.98
11  Cc1ccc(N2CCC3(CN(Cc4cccs4)CCC3(F)F)C2)nn1 (stereo unspecified)  cytotoxicity at 10 µM            8.39

----------
This listing pairs compounds with measured cytotoxicity at 10 µM.
Experiment: Toxicity liver stage against HepG2, at 10uM
Type: cell-based
Design: test concentration 10 uM, cell line HepG2-A16-CD81EGFP
Details: human, HepG2-A16-CD81EGFP cells; read-out: INHIBITION
quantity measured: cytotoxicity at 10 µM (%)

> print(dat)
                                   compound  numeric.result
1  CC(C)CCNC(=O)C(c1cccc(F)c1)N(C)C (stereo unspecified)           -5.77
2  CCc1nnc2n1CC(CNCc1nnc(C(C)(C)C)o1)CC2 (stereo unspecified)            3.18
3  Cc1cnn(CC2CCCN2C(=O)c2n[nH]c3ccccc23)c1 (stereo unspecified)           -9.93
4   CC(C)(O)CN1CCN(C(=O)c2ccc3c(c2)COC3)CC1          -0.644
5        Cc1noc(COCC(=O)Nc2cc(C)c(Br)cn2)n1             5.5
6  c1ccc(Cc2noc(CN3CCCCC3C3OCCO3)n2)cc1 (stereo unspecified)           -2.62

----------
Assay: Toxicity liver stage against HepG2, at 10uM
Assay type: cell-based
Design: test concentration 10 uM, cell line HepG2-A16-CD81EGFP
Conditions: human, HepG2-A16-CD81EGFP cells; read-out: INHIBITION
quantity measured: cytotoxicity at 10 µM (%)

> print(dat)
                                    compound  readout.unit  numeric.result
 1  CCN(CC)S(=O)(=O)N1CC[C@H](c2ccccc2)[C@H]2NCCCC[C@H]21             %           -39.5
 2         Cc1cc(C(=O)N(C)CCCn2cccn2)nc(N)n1             %           -7.04
 3    CC(C)N(C(=O)Cn1nc2n(c1=O)CCCCC2)C1CCC1             %           -7.62
 4  Nc1c(Cl)cnn1C1CCN(Cc2ccccc2)C1 (stereo unspecified)             %           0.648
 5  CC1=C(c2ccc(Cl)cc2)S(=O)(=O)N=C1N1CCc2ccccc21             %           -17.1
 6  COCCNC(=O)c1ccoc1CN1c2ccccc2CC1C (stereo unspecified)             %            5.41
 7  O=C(c1ccncc1)N1CCC(c2nc(O)cc(-c3cccnc3)n2)C1 (stereo unspecified)             %         -0.0788
 8  Cc1c(O)cccc1C(=O)N1CCCC2(C1)C(=O)N(C)c1ccccc12 (stereo unspecified)             %            4.34
 9  Cc1cccc(CN2C(=O)CC[C@@H]3[C@H]2CCN3C(=O)c2ccsc2)n1             %           -85.7
10  CS(=O)(=O)CC1(CNc2cc(C#N)c3cc(Cl)ccc3n2)CC1             %           -4.06
11              CCc1nnc(CN2CCN(C(C)=O)CC2)o1             %            4.39
